FYI, the data here is from paper PMC12136037.

Target: ~100 representative kinases (Homo sapiens)
Construct: Recombinant protein kinase domains with a concentration of 2 μM
Sequence (O14733 1-419): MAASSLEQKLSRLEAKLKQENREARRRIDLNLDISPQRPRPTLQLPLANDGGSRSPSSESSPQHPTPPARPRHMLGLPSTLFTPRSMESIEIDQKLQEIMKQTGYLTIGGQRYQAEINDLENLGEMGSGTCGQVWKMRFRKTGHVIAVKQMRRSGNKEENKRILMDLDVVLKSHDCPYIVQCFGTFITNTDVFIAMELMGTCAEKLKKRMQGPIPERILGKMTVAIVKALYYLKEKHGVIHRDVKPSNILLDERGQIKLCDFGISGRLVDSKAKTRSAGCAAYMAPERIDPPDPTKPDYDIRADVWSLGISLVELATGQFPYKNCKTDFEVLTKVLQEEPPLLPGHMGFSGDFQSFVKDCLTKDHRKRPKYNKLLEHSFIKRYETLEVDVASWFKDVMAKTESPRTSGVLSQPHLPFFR
Experiment: DSF 100 kinase selectivity screen;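 also: compound tested at 20 µM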
Format: binding
Conditions: protein MAP2K7; average of three replicates
Measured Attribute: dTm (K)

INSERT INTO results (compound, measured_attribute, value_units, number) VALUES
  ('O=C(Nc1ccc(F)cc1)C1(C(=O)Nc2cccc(-c3c[nH]c4ncnc(N5CCOCC5)c34)c2)CC1 [Compound 2]', 'dTm', 'K', 4.21),
  ('CCc1ccc(NC(=O)C2(C(=O)Nc3cccc(-c4c[nH]c5ncnc(N6CCOCC6)c45)c3)CC2)cc1 [Compound 15]', 'dTm', 'K', 3.12),
  ('O=C(Nc1cccc(-c2c[nH]c3ncnc(N4CCOCC4)c23)c1)C1(C(=O)Nc2cccc3c2CCC3)CC1 [Compound 11]', 'dTm', 'K', 4.41),
  ('O=C(Nc1cccc(-c2c[nH]c3ncnc(N4CCOCC4)c23)c1)C1(C(=O)Nc2cc(Br)c(F)cc2F)CC1 [Compound 25]', 'dTm', 'K', 3.02),
  ('O=C(Nc1cccc(-c2c[nH]c3ncnc(N4CCOCC4)c23)c1)c1cccn(-c2ccc(F)cc2)c1=O [Compound 4]', 'dTm', 'K', 5.76),
  ('Cc1cc(F)ccc1NC(=O)C1(C(=O)Nc2cccc(-c3c[nH]c4ncnc(N5CCOCC5)c34)c2)CC1 [Compound 24]', 'dTm', 'K', 3.14),
  ('Cc1ccc(-n2nc(C(C)(C)C)cc2NC(=O)Nc2cccc(-c3c[nH]c4nc(Cl)nc(N5CCOCC5)c34)c2)cc1 [Compound 30]', 'dTm', 'K', 2.39);
